Source listed as ChEMBL document CHEMBL1201862.

System: A498
runDescription: NCI tumour cell line growth inhibition, 48 h
The source made the active and inactive calls. No stated cut-off is given here; in the data, active = GI50 up to about 1.1 µM and inactive = higher.
measuredQuantity: GI50

molecule	measuredQuantity	result
c1ccc(NCn2cnc3ccccc32)cc1	GI50	> 100 µM (inactive)
O=C(O)c1ccc(O)c(/N=N/c2cc(S(=O)(=O)O)c3ccccc3c2O)c1	GI50	> 100 µM (inactive)
COc1cccc(C2N3CCCCC3[C@@H]3c4[nH]c5ccccc5c4CCN23)c1OC (stereo partly specified)	GI50	11.4 µM (inactive)

-- ask Entry COc1ncnc2c1cnn2Cc1cn(COCC(O)CO)nn1 (stereo unspecified) has what GI50?
-- reply > 100 µM (inactive)

-- ask Entry CCOC(=O)NC(=O)c1cn(C2OC(CO)C(O)C2O)c(=O)[nH]c1=O (stereo unspecified) has what GI50?
-- reply > 100 µM (inactive)

-- ask Entry CCOC(=O)C(=Cc1cc(OC)ccc1OC)C(=O)OCC has what GI50?
-- reply 14.4 µM (inactive)

---

System: NCI-H23
runDescription: NCI tumour cell line growth inhibition, 48 h
Calls of active or inactive are those of the source. No stated cut-off is given here; in the data, active = GI50 up to about 1.1 µM and inactive = higher.
Select the matching outcome among 1.0 (active), 0.0 (inactive)

Worked cases, answers included:
compound	labelValue
COc1cc(OC)c(C2c3cc4c(cc3OC(N3CCCC3)C2C)OCO4)c(OC)c1 (stereo unspecified)	0.0
O=C(CC(=O)c1cccc([N+](=O)[O-])c1)C(=O)Nc1ccccc1	0.0
CC(c1ccccc1)C(O)S(=O)(=O)O (stereo unspecified)	0.0
O=C(NNC(=S)Nc1ccccc1)c1nsc2ccccc12	0.0
COC(=O)[C@@]12CC[C@]1(C(=O)OC)C1C(C)=CC(=O)O[C@@]12C (stereo partly specified)	0.0
Cc1cc(C)c2c(O)cc(-c3cccc(Cl)c3)nc2n1	1.0

-- ask Give the logged outcome of this assay for the following compound: Cc1ccc(S(=O)(=O)c2ccccc2[N+](=O)[O-])cc1
-- reply 0.0

-- ask Give the logged outcome of this assay for the following compound: COC(=O)[C@@H](NC(=O)N(CCC#N)CCCN(C(=O)N[C@H](Cc1ccccc1)C(=O)OC)c1ccccc1)C(C)C
-- reply 0.0

-- ask Give the logged outcome of this assay for the following compound: CCc1n[nH]c(=O)n1/N=C/c1ccccc1Cl
-- reply 0.0

-- ask Give the logged outcome of this assay for the following compound: c1ccc2c(c1)CC1c3[nH]c4ccccc4c3CCN21 (stereo unspecified)
-- reply 0.0

-- ask Give the logged outcome of this assay for the following compound: C=C(C(=C)N1N=NC2C3CCC(C3)C21)N1N=NC2C3CCC(C3)C21 (stereo unspecified)
-- reply 0.0

---

Test system: IGROV-1
runDescription: NCI tumour cell line growth inhibition, 48 h
Calls of active or inactive are those of the source. Cut-off read from the data, not from the text of the source: active = GI50 up to about 1.1 µM and inactive = higher.
Select the matching outcome among 1 (yes) (active), 0 (no) (inactive)

Worked cases, answers included:
compound	labelValue
CC(=O)NS(=O)(=O)c1ccc(NC(=O)COC(=O)c2cccc3c(=O)c4ccccc4[nH]c23)cc1	0 (no)
Cc1ccc(S(=O)(=O)c2ccccc2[N+](=O)[O-])cc1	0 (no)
COC1(OC)CC(CO)(CNc2nc(N)nc(Cl)c2/C=N\O)C1	0 (no)
CC(C)(C)OCC1NC(=O)[C@@H]2Cc3c([nH]c4ccccc34)C(C3CCCCC3)N2C1=O (stereo partly specified)	0 (no)
COC(=O)[C@@H](NC(=O)N(CCC#N)CCCN(C(=O)N[C@H](Cc1ccccc1)C(=O)OC)c1ccccc1)C(C)C	0 (no)

-- ask Give the logged outcome of this assay for the following compound: O=C(O)CCc1nc(-c2ccccc2)c(-c2ccccc2)o1
-- reply 0 (no)

-- ask Give the logged outcome of this assay for the following compound: CN[C@@H](C)[C@@H](N)c1ccccc1
-- reply 0 (no)

-- ask Give the logged outcome of this assay for the following compound: CC1=CC(O)(c2ccccc2)C(N2CCOCC2)N1O (stereo unspecified)
-- reply 0 (no)

-- ask Give the logged outcome of this assay for the following compound: O=C1c2ccc(O)c(O)c2C(=O)c2c(O)ccc(O)c21
-- reply 0 (no)

-- ask Give the logged outcome of this assay for the following compound: CCOC(=O)c1cn2c([nH]c3ccccc32)c(C#N)c1=O
-- reply 0 (no)

-- ask Give the logged outcome of this assay for the following compound: CC(C)(C)OC(=O)NC(CS(=O)(=O)O)C(=O)O (stereo unspecified)
-- reply 0 (no)

-- ask Give the logged outcome of this assay for the following compound: COc1ccc2c(c1)CC[C@@H]1C2CC[C@]2(C)C(=N\O)/C(=N/O)CC12 (stereo partly specified)
-- reply 0 (no)

-- ask Give the logged outcome of this assay for the following compound: O=C1OC(O)C(Oc2ccc(Cl)cc2)=C1Cl (stereo unspecified)
-- reply 0 (no)
